A compilation of pIC50 values for Serine/threonine-protein kinase pim-1 (Homo sapiens, UniProt P11309) from the published literature.
# pIC50 is unitless: minus log10 of the molar concentration; print number only

Please review the entries below; each comes with its answer.
COc1cccc2ccc(-c3nnc4ccc(C(N5C[C@H](O)[C@@H](O)C5)C(F)(F)F)cn34)nc12 (stereo partly drawn) ... 8.62
Nc1ccc(Nc2nc3c(Br)c(Br)c(Br)c(Br)c3[nH]2)cc1 ... 7.18
NCc1ccn2c(-c3ccc4cccc(N5CCC(CN)CC5)c4n3)nnc2c1 ... 8.70
CC(C)Oc1ccc(F)c(-c2nc(C(=O)Nc3cnccc3[C@@H]3C[C@H](C)C[C@H](N)C3)cs2)c1F ... 9.00
CN(Cc1ccccc1)c1nc2c(Br)c(Br)c(Br)c(Br)c2[nH]1 ... 7.07

// below: pIC50 requested for another molecule
query: Query (molecule): `N[C@@H]1CN(c2ccncc2NC(=O)c2csc(-c3c(F)cccc3F)n2)CC[C@H]1O` ; field requested: pIC50
result: 8.70
